TARGET OR TEST SYSTEM: Tyrosine-protein kinase Lck (Homo sapiens, UniProt P06239)
Sequence (P06239 whole entry): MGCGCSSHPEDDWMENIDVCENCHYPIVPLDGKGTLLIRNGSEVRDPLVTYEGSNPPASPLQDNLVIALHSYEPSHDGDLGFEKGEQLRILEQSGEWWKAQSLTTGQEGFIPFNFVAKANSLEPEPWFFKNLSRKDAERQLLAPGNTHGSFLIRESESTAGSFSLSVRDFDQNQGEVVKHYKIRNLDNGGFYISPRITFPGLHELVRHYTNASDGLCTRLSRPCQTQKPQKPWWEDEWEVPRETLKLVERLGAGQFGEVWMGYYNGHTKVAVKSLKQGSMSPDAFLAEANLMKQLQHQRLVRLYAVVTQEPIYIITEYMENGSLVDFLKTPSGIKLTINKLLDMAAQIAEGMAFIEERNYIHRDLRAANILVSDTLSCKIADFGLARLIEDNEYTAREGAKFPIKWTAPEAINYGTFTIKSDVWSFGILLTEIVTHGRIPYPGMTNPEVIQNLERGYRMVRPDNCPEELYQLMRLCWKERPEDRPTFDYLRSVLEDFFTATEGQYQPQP
MEASUREMENT NOTES: Inhibition of human activated Lck
MEASUREMENT TYPE: IC50

# input molecule: Cc1ccc(-c2cn(C3CCCCC3=O)nn2)cc1 (stereo unspecified) ; wanted: its IC50 > 100 µM

====

This section lists IC50 readings for Proto-oncogene tyrosine-protein kinase Src (Homo sapiens, UniProt P12931).
Report as a plain number; the unit µM is understood.

Worked examples follow.
{"columns": ["MOLECULE", "TARGET OR TEST SYSTEM", "VALUE UNITS", "IC50"],
 "data": [
  ["Cc1ccc(-c2cn(C3CCCCC3=O)nn2)cc1 (stereo not given)", "Proto-oncogene tyrosine-protein kinase Src (Homo sapiens, UniProt P12931)", "µM", 33.9],
  ["O=C(Cn1cc(-c2ccccc2)nn1)c1ccc(Cl)cc1", "Proto-oncogene tyrosine-protein kinase Src (Homo sapiens, UniProt P12931)", "µM", 139],
  ["O=C(Cn1cc(-c2ccccc2)nn1)c1ccc(-c2cc3ccccc3oc2=O)cc1", "Proto-oncogene tyrosine-protein kinase Src (Homo sapiens, UniProt P12931)", "µM", 89.5],
  ["Cc1ccc(C(=O)Cn2cc(-c3ccc(C)cc3)nn2)cc1", "Proto-oncogene tyrosine-protein kinase Src (Homo sapiens, UniProt P12931)", "µM", 49.8],
  ["Cc1ccc(-c2cn(C3CCCC3=O)nn2)cc1 (stereo not given)", "Proto-oncogene tyrosine-protein kinase Src (Homo sapiens, UniProt P12931)", "µM", 62.1]
]}

# input molecule: `Cc1cc(-c2cn(CC(=O)c3ccccc3)nn2)ccc1F` ; wanted: its IC50 81

Here is the next molecule: Cc1ccc(-c2cn(C3CCCCCC3=O)nn2)cc1 (stereo not given) 66.1

Here is the next molecule: `Cc1ccc(-c2cn(CC(=O)c3ccccc3)nn2)cc1` 41.6

Here is the next molecule: `Cc1ccc(-c2cn(CC(=O)c3ccc(Cl)cc3)nn2)cc1` 109
